Where these numbers come from: ChEMBL document CHEMBL1152216

# System: A549
# experimentalProtocol: Cytotoxicity against human A549 cells after 48 hrs by MTT assay
# Format: functional
# testContext: A549, 48 h
reportedEndpoint: LC50 (µM)
Report the value in µM with no unit label.

Using the record for COc1c(C)c(OC)c(OC)c2c1C[C@H]1[C@H](C#N)N3C([C@@H]4O[C@H]5c6ccccc6[C@H](C#N)N5C[C@H]3c3c(OC)c(OC)c(C)c(OC)c34)[C@@H]2N1C (relative stereo) , report its LC50. 12.7

Another: COc1c(C)c(OC)c(OC)c2c1C[C@H]1[C@@H](O)N(C(=O)OC(C)C)CC(=O)N1[C@H]2COCc1ccccc1 (relative stereo) 17.4

###

I'd appreciate it if you could supply GI50 values for the items below.
# System: HT-29
# experimentalProtocol: Growth inhibition of human HT-29 cells after 48 hrs by MTT assay
# Assay type: functional
# testContext: HT-29, 48 h
In your response, put the unit directly after the numeric value.

Using the record for COc1c(C)c(OC)c(OC)c2c1C[C@H]1[C@H](C#N)N3C([C@@H]4O[C@H]5c6ccccc6[C@H](C#N)N5C[C@H]3c3c(OC)c(OC)c(C)c(OC)c34)[C@@H]2N1C (relative stereo) , report its GI50. 7.35 µM

Another: `COc1c(C)c(OC)c(OC)c2c1C=C1CN(C)CC(=O)N1[C@H]2CN1Cc2ccccc2C1=O` 3.67 µM

Another: COc1c(C)c(OC)c(OC)c2c1C[C@H]1[C@@H](O)N(C(=O)OC(C)(C)C)CC(=O)N1[C@H]2COCc1ccccc1 (relative stereo) 14.4 µM

###

I'd appreciate it if you could supply GI50 values for the items below.
# System: HT-29
# experimentalProtocol: Growth inhibition of human HT-29 cells after 48 hrs by MTT assay
# Type: functional
# testContext: HT-29, 48 h
Report the value in µM with no unit label.

Using the record for COc1c(C)c(OC)c(OC)c2c1C[C@H]1CN(C(=O)OC(C)C)CC(=O)N1[C@H]2COC(=O)/C=C/c1ccccc1 (relative stereo) , report its GI50. 9.23

Another: COc1c(C)c(OC)c2c(c1OC)[C@@H]1CN3C(=O)c4ccccc4[C@@H]3O[C@H]2C2=CN(C(=O)OC(C)C)CC(=O)N21 (relative stereo) 10.4

Another: COc1c(C)c(OC)c(OC)c2c1C[C@H]1[C@@H](O)N(C(=O)OC(C)C)CC(=O)N1[C@H]2COCc1ccccc1 (relative stereo) 8.32

###

I'd appreciate it if you could supply LC50 values for the items below.
# Tested on: A549
# experimentalProtocol: Cytotoxicity against human A549 cells after 48 hrs by MTT assay
# Assay type: functional
# testContext: A549, 48 h

Using the record for COc1c(C)c(OC)c(OC)c2c1C[C@H]1CNCC(=O)N1[C@H]2COCc1ccccc1 (relative stereo) , report its LC50. > 23.4 µM

Another: COc1c(C)c(OC)c(OC)c2c1C[C@H]1[C@@H](O)N(C(=O)OC(C)(C)C)CC(=O)N1[C@H]2COCc1ccccc1 (relative stereo) > 18.4 µM

Another: COc1c(C)c(OC)c(OC)c2c1C[C@H]1CN(C)CC(=O)N1[C@H]2COCc1ccccc1 (relative stereo) > 22.7 µM
